As shown below, each of these compounds has a reported normalized growth value.
- test-details: chemical genetic growth profiling, strain panel (AID 1159580);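 note: tested at 20 µM; growth read once vehicle control cultures reached saturation at 30 °C; 1 = growth at the plate median or of vehicle wells; lower values mean less growth of the strain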
- test-settings: S. cerevisiae deletion strains, growth OD, strain wtn01, hits give low values
Hit rate of the full screen: of about 5,500 compounds, about 2,000 (36%) were called active. Not shown: some 18% with an inconclusive outcome. Some of the results follow.

compound: O=C(O)c1cc(=O)c2cc(Cl)ccc2[nH]1
normalized growth: 1.01

compound: Cc1cc(=O)c2c(O)c(C)c(O)cc2o1
normalized growth: 0.97

compound: Cc1cc(=O)c2c(O)cc(O)c(C)c2o1
normalized growth: 1.01

compound: COc1cc(OC)c2c(c1)OC(c1ccc(OC)c(OC)c1)C(O)C2 (stereo unspecified)
normalized growth: 1.03

compound: O=C(O)c1cc(=O)c2ccc(Cl)cc2[nH]1
normalized growth: 0.98

compound: COc1ccc2c(c1)OC[C@@H](Cc1ccc(OC)c(OC)c1)[C@H]2O
normalized growth: 0.97

compound: COc1ccc2c(c1)OC[C@@H](Cc1ccc(OC)c(OC)c1)[C@@H]2O
normalized growth: 0.982

compound: O=[N+]([O-])O[C@H]1CO[C@H]2[C@@H]1OC[C@H]2O[N+](=O)[O-]
normalized growth: 1.05

compound: COc1ccc(CC2c3cc(OC)c(OC)cc3CCN2C)cc1OC (stereo unspecified)
normalized growth: 0.934

compound: COc1c(O)cc2oc3cc(O)c(CC=C(C)C)c(O)c3c(=O)c2c1CC=C(C)C
normalized growth: 0.697

compound: COc1cc(O)c2c(=O)cc(C)oc2c1CC=C(C)C
normalized growth: 0.852
